target: CYP2C19 (Homo sapiens, UniProt P33261); construct: Cambridge Bioscience Limited (ran the assay); assay: CYP isoforms inhibition; details: 5-dose, 3-fold dilution starting at 30 µM
Sequence (P33261 whole entry, canonical isoform): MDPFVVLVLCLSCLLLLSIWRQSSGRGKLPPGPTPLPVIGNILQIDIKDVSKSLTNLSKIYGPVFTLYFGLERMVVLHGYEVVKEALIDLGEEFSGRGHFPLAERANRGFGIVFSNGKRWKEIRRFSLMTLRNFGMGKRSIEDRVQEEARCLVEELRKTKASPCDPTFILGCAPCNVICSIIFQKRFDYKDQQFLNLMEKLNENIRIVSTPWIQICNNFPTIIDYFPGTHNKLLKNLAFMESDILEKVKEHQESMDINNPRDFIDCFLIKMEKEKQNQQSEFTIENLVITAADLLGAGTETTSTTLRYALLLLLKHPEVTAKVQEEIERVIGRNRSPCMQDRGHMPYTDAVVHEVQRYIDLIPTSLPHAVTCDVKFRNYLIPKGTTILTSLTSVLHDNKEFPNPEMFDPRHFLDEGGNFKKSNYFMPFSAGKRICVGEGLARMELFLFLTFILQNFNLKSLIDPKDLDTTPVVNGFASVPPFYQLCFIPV
value.kind: IC50

// IC50 lookup, compound = `CC(C)n1c(C2CCNCC2)nc2c([N+](=O)[O-])c(Br)c(Br)cc21` , result: > 70 µM

---

Target: CYP2C8 (Homo sapiens)
Construct: Cambridge Bioscience Limited (ran the assay)
Sequence (P10632 whole entry): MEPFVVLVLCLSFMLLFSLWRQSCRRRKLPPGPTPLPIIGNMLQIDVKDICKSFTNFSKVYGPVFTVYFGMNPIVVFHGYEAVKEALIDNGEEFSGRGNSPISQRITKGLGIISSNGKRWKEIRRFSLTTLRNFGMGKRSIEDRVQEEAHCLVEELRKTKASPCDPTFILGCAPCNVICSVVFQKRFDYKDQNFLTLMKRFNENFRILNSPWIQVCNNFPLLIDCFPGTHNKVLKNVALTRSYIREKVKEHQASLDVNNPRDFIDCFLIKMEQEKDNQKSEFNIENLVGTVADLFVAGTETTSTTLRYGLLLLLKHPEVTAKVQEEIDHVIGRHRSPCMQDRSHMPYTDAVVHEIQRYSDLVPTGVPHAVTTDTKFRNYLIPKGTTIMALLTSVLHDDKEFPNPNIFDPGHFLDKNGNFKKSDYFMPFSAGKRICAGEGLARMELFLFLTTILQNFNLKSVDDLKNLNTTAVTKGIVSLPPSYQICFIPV
Test: CYP isoforms inhibition
Settings: 5-dose, 3-fold dilution starting at 30 µM
Protocol: or absence of enzyme cofactors. The assay was performed microsomes. (Supplementary Table 7). with the respective reference samples (i.e. without measured at Cambridge Bioscience Limited (except cofactors). After incubation, drug transformation by liver CYP1A2 inhibition which was measured in-house). The enzymes was terminated by adding cold acetonitrile. loss of compound was determined by LC-MS analysis. serial dilution starting at 30 μM. The control compound […]
pIC50: −log10 of the molar value.
value.kind: pIC50

// pIC50 lookup, molecule = `CC(C)n1c(C2CCNCC2)nc2c([N+](=O)[O-])c(Br)c(Br)cc21` , result: < 4.52

---

molecular target: FLT3 (R834Q) (Homo sapiens, UniProt P36888, R834Q); assay: KINOMEscan Kd, specific screen against FLT3 mutants
value.kind: pKd
Recall that pKd is obtained by taking minus log10 of the concentration measured in molar.

// pKd lookup, compound = `CC(C)n1c(C2CCNCC2)nc2c([N+](=O)[O-])c(Br)c(Br)cc21` , result: 5.49

---

test: Pharmacokinetics after oral and intravenous administration; format: in vivo, rats (Sprague Dawley); details: male, Sprague Dawley, plasma, 25 mg/kg; Rat, Dose PO/IV 25/1 mg/kg
value.kind: Cmax
Answer with the figure and its unit, nothing else.

// Cmax lookup, compound = CC(C)n1c(C2CCNCC2)nc2c([N+](=O)[O-])c(Br)c(Br)cc21 [SEL24-B489] , result: 913 ng/mL

---

Test: Blood biochemistry in mice with MV-4-11 tumors
Assay type: in vivo
Details: SEL24-B489 50 mg/kg, treatment day 15
Method: All animals were handled in strict accordance with good animal practice as defined by the relevant national and local animal welfare bodies. […] Tumor volume was monitored every second day and calculated using the formula: TV = (a^2×b)/2, where “a” is the short axis in millimeters, and “b” is the long axis in millimeters. Body weight was assessed every day. […]
value.kind: K (mM)
Express it in mM; write the number only.

// K lookup, compound = CC(C)n1c(C2CCNCC2)nc2c([N+](=O)[O-])c(Br)c(Br)cc21 [SEL24-B489] , result: 5.3

---

tested on: KG-1; assay: MTS viability assay, 72 h; conditions: read-out: LC50; KG-1, 72 h; 50% death relative to T0
value.kind: CC50

Param item: `N[C@@H]1CCCN(c2c(/C=C3\SC(=O)NC3=O)cccc2-c2ccccc2)C1` ; param system: KG-1; output CC50: > 10 µM

---

experiment: Pharmacokinetics after oral and intravenous administration; format: in vivo, mice (CD-1); conditions: female, CD-1, plasma; Mouse, Dose PO/IV 50/15 mg/kg
value.kind: half-life (h)
Express it in h; write the number only.

// half-life lookup, compound = `CC(C)n1c(C2CCNCC2)nc2c([N+](=O)[O-])c(Br)c(Br)cc21` , result: 5.2
